- Method summary: PHH natural infection assay, cytotoxicity (Cell Counting Kit-8)
- Format: cell-based
- Test settings: HBV-infected primary human hepatocytes, CCK8

{"Smiles code": "CC(C)C(=O)Nc1ccc(-c2nnc(-c3ccccc3)o2)cc1", "CC50 at 144 h": "> 100 µM"}
{"Smiles code": "O=C(Nc1ccc(-c2nnc(-c3ccccc3)o2)cc1)c1ccc(Cl)cc1", "CC50 at 144 h": "> 100 µM"}
{"Smiles code": "CC(C)(C)C(=O)Nc1ccc(-c2nnc(-c3ccccc3)o2)cc1", "CC50 at 144 h": "> 100 µM"}
{"Smiles code": "O=C(Nc1ccc(-c2nnc(-c3ccccc3)o2)cc1)c1ccc(F)cc1", "CC50 at 144 h": "> 100 µM"}
{"Smiles code": "O=C(Nc1ccc(-c2nnc(-c3ccccc3)o2)cc1)c1ccccc1OC(F)(F)F", "CC50 at 144 h": "> 100 µM"}
{"Smiles code": "O=C(Nc1ccc(-c2nnc(-c3ccccc3)o2)cc1)c1ccncc1", "CC50 at 144 h": "> 100 µM"}
{"Smiles code": "O=C(Nc1ccc(-c2nnc(-c3ccccc3)o2)cc1)c1cccc(Cl)n1", "CC50 at 144 h": "> 100 µM"}
{"Smiles code": "O=C(Nc1ccc(-c2nnc(-c3ccccc3)o2)cc1)c1ccccc1F", "CC50 at 144 h": "> 100 µM"}
{"Smiles code": "Cc1cc(Cl)cc(C(=O)Nc2ccc(-c3nnc(-c4ccccc4)o3)cc2)c1", "CC50 at 144 h": "> 100 µM"}
{"Smiles code": "O=C(Nc1ccc(-c2nnc(-c3ccccc3)o2)cc1)c1ccccc1OC(F)F", "CC50 at 144 h": "> 100 µM"}
{"Smiles code": "Cc1cc(F)cc(C(=O)Nc2ccc(-c3nnc(-c4ccccc4)o3)cc2)c1", "CC50 at 144 h": "> 100 µM"}
{"Smiles code": "CC(C)CC(=O)Nc1ccc(-c2nnc(-c3ccccc3)o2)cc1", "CC50 at 144 h": "> 100 µM"}
{"Smiles code": "O=C(Nc1ccc(-c2nnc(-c3ccccc3)o2)cc1)c1ccnc(Cl)c1", "CC50 at 144 h": "> 100 µM"}
{"Smiles code": "O=C(Nc1ccc(-c2nnc(-c3ccccc3)o2)cc1)c1cccc(OC(F)F)c1", "CC50 at 144 h": "> 100 µM"}
{"Smiles code": "CN(C)c1ccc(-c2nnc(-c3ccccc3)o2)cc1", "CC50 at 144 h": "> 100 µM"}
{"Smiles code": "Nc1ccc(-c2nnc(-c3ccccc3)o2)cc1F", "CC50 at 144 h": "> 100 µM"}
{"Smiles code": "COc1cc(C(=O)Nc2ccc(-c3nnc(-c4ccccc4)o3)cc2)ccn1", "CC50 at 144 h": "> 100 µM"}
{"Smiles code": "O=C(Nc1ccc(-c2nnc(-c3ccccc3)o2)cc1)c1ccc(Cl)cn1", "CC50 at 144 h": "> 100 µM"}
{"Smiles code": "CC(C)(C)CC(=O)Nc1ccc(-c2nnc(-c3ccccc3)o2)cc1", "CC50 at 144 h": "> 100 µM"}
{"Smiles code": "O=C(Nc1ccc(-c2nnc(-c3ccccc3)o2)cc1)c1nccs1", "CC50 at 144 h": "> 100 µM"}
{"Smiles code": "Cc1cc(-c2nnc(-c3ccccc3)o2)ccc1N", "CC50 at 144 h": "> 100 µM"}
{"Smiles code": "COc1cc(-c2nnc(-c3ccccc3)o2)ccc1N", "CC50 at 144 h": "> 100 µM"}
{"Smiles code": "O=C(Nc1ccc(-c2nnc(-c3ccccc3)o2)cc1)c1ccccc1Cl", "CC50 at 144 h": "> 100 µM"}
{"Smiles code": "COCCC(=O)Nc1ccc(-c2nnc(-c3ccccc3)o2)cc1", "CC50 at 144 h": "> 100 µM"}
{"Smiles code": "CCCCC(=O)Nc1ccc(-c2nnc(-c3ccccc3)o2)cc1", "CC50 at 144 h": "> 100 µM"}
{"Smiles code": "N#Cc1ccc(C(=O)Nc2ccc(-c3nnc(-c4ccccc4)o3)cc2)cc1", "CC50 at 144 h": "> 100 µM"}
{"Smiles code": "O=C(Nc1ccc(-c2nnc(-c3ccccc3)o2)cc1)c1cccnn1", "CC50 at 144 h": "> 100 µM"}
{"Smiles code": "O=C(Nc1ccc(-c2nnc(-c3ccccc3)o2)cc1)c1ncco1", "CC50 at 144 h": "> 100 µM"}
{"Smiles code": "CCCC(=O)Nc1ccc(-c2nnc(-c3ccccc3)o2)cc1", "CC50 at 144 h": "> 100 µM"}
{"Smiles code": "CCC(=O)Nc1ccc(-c2nnc(-c3ccccc3)o2)cc1", "CC50 at 144 h": "> 100 µM"}
{"Smiles code": "O=C(Nc1ccc(-c2nnc(-c3ccccc3)o2)cc1)c1cccc(OC(F)(F)F)c1", "CC50 at 144 h": "> 100 µM"}
{"Smiles code": "O=C(Nc1ccc(-c2nnc(-c3ccccc3)o2)cc1)c1ccnnc1", "CC50 at 144 h": "> 100 µM"}
{"Smiles code": "O=C(Nc1ccc(-c2nnc(-c3ccccc3)o2)cc1)C1CCCC1", "CC50 at 144 h": "> 100 µM"}
